Tested on: Enterococcus sp.
Experiment: in vitro antibacterial evaluation, MIC by broth dilution
Format: cell-based
Settings: broth dilution, 18 hours at 35° C.; strain GC 4552
Numbered stars: 1 amine (or outer) side, 2 acyl side, 3 side chain; on linkers, the order of the positions; unused ones are H or OH. Square brackets hold non-standard residues; d marks the D form. Peptide text beside a SMILES is read from it. * marks the point of attachment. ξ: configuration not given here. X1 = N=C1NCC(C(O)C(N[*:1])C(=O)[*:2])N1C1OC(CO)C(O)C(O)C1O; ξEnduracididine(βξ-OH,4'ξ) = N=C1NCC(C(O)C(N)C(=O)O)N1; ξPhe(4-Cl,βξ-Me) = CC(c1ccc(Cl)cc1)C(N)C(=O)O; X2 = OCC1OC(OC2C(CO)OC(*)C(O)C2O)C(O)C(O)C1O
Overview of reported MIC Enterococcus faecalis (GC 4552) across a group of molecules:

Use the examples below as a reference point.
CC(c1ccc(F)cc1)C1NC(=O)CNC(=O)C(CO)NC(=O)C(C(O)C2CNC(=N)N2C2OC(CO)C(O)C(O)C2O)NC(=O)C(C(O)C2CNC(=N)N2)NC(=O)C(Cc2ccc(OC3OC(CO)C(OC4OC(CO)C(O)C(O)C4O)C(O)C3O)cc2)NC1=O (stereo not shown) [Example 261a]	>64 µg/mL
CC(c1ccc(Cl)cc1)C1NC(=O)CNC(=O)C(CO)NC(=O)C(C(O)C2CNC(=N)N2C2OC(CO)C(O)C(O)C2O)NC(=O)C(C(O)C2CNC(=N)N2)NC(=O)C(Cc2ccc(OC3OC(CO)C(OC4OC(CO)C(O)C(O)C4O)C(O)C3O)cc2)NC1=O (stereo not drawn) [Example 262a] (cyclo(G[ξPhe(4-Cl,βξ-Me)]Y(X2)[ξEnduracididine(βξ-OH,4'ξ)][X1]S); configuration not given here)	>128 µg/mL
CCCCCNC(=O)OC1C(CO)OC(OC2C(CO)OC(Oc3ccc(CC4NC(=O)C(C(C)c5ccccc5)NC(=O)CNC(=O)C(CO)NC(=O)C(C(O)C5CNC(=N)N5C5OC(CO)C(O)C(O)C5O)NC(=O)C(C(O)C5CNC(=N)N5)NC4=O)cc3)C(O)C2O)C(O)C1O (stereo not shown)	>64 µg/mL

Which MIC Enterococcus faecalis (GC 4552) value is on record for CC(c1ccccc1)C1NC(=O)CNC(=O)C(CO)NC(=O)C(CC2CNC(=N)N2C2OC(CO)C(O)C(O)C2O)NC(=O)C(CC2CNC(=N)N2)NC(=O)C(Cc2ccc(OC3OC(CO)C(OC4OC(CO)C(O)C(O)C4O)C(O)C3O)cc2)NC1=O (stereo not shown) [Example 277a] ?
>128 µg/mL

----------
Test system: Enterococcus sp.
Assay: in vitro antibacterial evaluation, MIC by broth dilution
Format: cell-based
Details: broth dilution, 18 hours at 35° C.
Measure name: MIC Enterococcus faecalis (GC 3059)

Use the examples below as a reference point.
CC(c1ccccc1)C1NC(=O)CNC(=O)C(CO)NC(=O)C(C(O)C2CNC(=N)N2C2OC(CO)C(O)C(O)C2O)NC(=O)C(C(O)C2CNC(=N)N2)NC(=O)C(Cc2ccc(OC3OC(CO)C(OC4OC(CO)C(O)C(O)C4OCc4ccc(OCc5ccccc5)cc4)C(O)C3O)cc2)NC1=O (stereo not drawn) [Example 231b]	16 to 128 µg/mL
N=C1NCC(C(O)C2NC(=O)C(CC3CCC(OC4OC(CO)C(OC5OC6COC7(OC6C(O)C5O)C5CC6CC(C5)CC7C6)C(O)C4O)CC3)NC(=O)C(CC3CCCCC3)NC(=O)CNC(=O)C(CO)NC(=O)C(C(O)C3CNC(=N)N3C3OC(CO)C(O)C(O)C3O)NC2=O)N1 (single isomer, unassigned)	>64 µg/mL
CC(c1ccccc1)C1NC(=O)CNC(=O)C(CO)NC(=O)C(C(O)C2CN(Cc3ccccc3-c3ccccc3)C(=N)N2C2OC(CO)C(O)C(O)C2O)NC(=O)C(C(O)C2CNC(=N)N2)NC(=O)C(Cc2ccc(OC3OC(CO)C(OC4OC(CO)C(O)C(O)C4O)C(O)C3O)cc2)NC1=O (stereo not drawn)	>128 µg/mL
CC(c1ccccc1)C1NC(=O)CNC(=O)C(CO)NC(=O)C(C(O)C2CN(c3nc4ccccc4s3)C(=N)N2C2OC(CO)C(O)C(O)C2O)NC(=O)C(C(O)C2CNC(=Nc3nc4ccccc4s3)N2)NC(=O)C(Cc2ccc(OC3OC(CO)C(OC4OC(CO)C(O)C(O)C4O)C(O)C3O)cc2)NC1=O (stereo not drawn)	>64 µg/mL
CC(c1ccccc1)C1NC(=O)CNC(=O)C(CO)NC(=O)C(CC2CNC(=N)N2C2OC(CO)C(O)C(O)C2O)NC(=O)C(CC2CNC(=N)N2)NC(=O)C(Cc2ccc(OC3OC(CO)C(OC4OC(CO)C(O)C(O)C4OCc4ccc(OCc5ccccc5)cc4)C(O)C3O)cc2)NC1=O (stereo not drawn) [Example 246c]	>128 µg/mL

Would you kindly look at the next entry?
Which MIC Enterococcus faecalis (GC 3059) value is on record for CC(c1ccccc1)C1NC(=O)CNC(=O)C(CO)NC(=O)C(C(O)C2CNC(=N)N2C2OC(CO)C(O)C(O)C2O)NC(=O)C(C(O)C2CNC(=N)N2)NC(=O)C(Cc2ccc(OC3OC(CO)C(OC4OC5COC(c6ccccc6)OC5C(O)C4O)C(O)C3O)c(I)c2)NC1=O (stereo not drawn) ?
>64 µg/mL

Cited source for all entries: patent US6914045B2
